# credit: patent US7723524B2

test system: K. pneumoniae TYPE I; assay: Antibacterial activity (MIC), standard method of the Japanese Society of Chemotherapy; assay type: cell-based; conditions: Klebsiella pneumoniae; K. pneumoniae TYPE I; read-out: MIC
Reported MIC values follow for various compounds
metric: MIC (µg/mL)

- N#Cc1c(N2CC[C@@H](C3(N)CC3)C2)ccc2c(=O)c(C(=O)O)cn([C@@H]3C[C@@H]3F)c12 [Control drug 1, reference compound]: 0.1
- C[C@H]1COc2c(N3CCN(C)CC3)c(F)cc3c(=O)c(C(=O)O)cn1c23 [LVFX, levofloxacin, reference compound]: 0.1
- O=C(O)c1cn(C2CC2)c2cc(N3CCNCC3)c(F)cc2c1=O [CPFX, ciprofloxacin, reference compound]: 0.025
- N#Cc1c(N2CC[C@@H](C3(N)CC3)C2)c(F)cc2c(=O)c(C(=O)O)cn(C3CC3)c12 [No. 2]: 0.012
- N#Cc1c(N2CC[C@@H](C3(N)CC3)C2)c(F)cc2c(=O)c(C(=O)O)cn([C@@H]3C[C@@H]3F)c12 [No. 1]: 0.025
